# Test system: A549
# PROTOCOL SUMMARY: NCI tumour cell line growth inhibition, 48 h
Calls of active or inactive are those of the source. Cut-off read from the data, not from the text of the source: active = GI50 up to about 1.1 µM and inactive = higher.
In this exercise, the only acceptable responses are yes (1) = active, no (0) = inactive

Answered examples (8):
C/C(=N\NC(=S)N1CC2CCC(CC2)C1)c1cccc(C)n1; yes (1)
CC(=O)NNc1nc(C)c(C(/C=C/c2ccc3c(c2)OCO3)=N/Nc2ccccc2)s1; no (0)
COc1ccc2c(c1)CCCN1Cc3cc(OC)c(OC)cc3CC21 (stereo not given); no (0)
CCOC(=O)C1(C#N)C(C#N)(C#N)C1(C#N)C#N; no (0)
CCOC(=O)C1Nc2ccc([N+](=O)[O-])cc2[C@H]2OCC[C@@H]12 (stereo not given in full); no (0)
COc1ccc2c(c1)C(=O)CC(C(N)=O)C2 (stereo not given); no (0)
CCN(CC)CC1CCCCCCCCCCC1=O (stereo not given); no (0)
COCC1C(=O)c2cc3c(cc2C12C=CC1(C=C2)OCCO1)OCO3 (stereo not given); no (0)

// outcome(item) with item = Nc1ccn(C2CC(O)C(COP(=O)(S)OC3CC(n4ccc(N)nc4=O)OC3CO)O2)c(=O)n1 (stereo not given)
no (0)

O=C(CC1=Nc2nnc(CCCCCCCc3nnc4n3C(=O)C(CC(=O)c3ccc5ccccc5c3)=N4)n2C1=O)c1ccc2ccccc2c1 ?
no (0)
